- Test system: SUDV (glycoprotein, VSV pseudotype)
- METHOD: microbe, parasite or virus in culture
- Type: cell-based, Sudan ebolavirus
- SETTINGS: Vesicular stomatitis virus, Vero, 24 h, read-out: EC50 Pseudotype Assays SUDV
MEASUREMENT TYPE: EC50 (nM)
The reply should contain only the number, in nM.

Sample records with EC50:
>>> observed_result("CCC12CC3CC(CNC4CCNCC4(C)C)(C1)CC(c1ccccc1)(C3)C2 (stereo not shown) [Example A61]")
660
>>> observed_result("C[C@]12CC3CC(C(=O)N4CCC5(CCCN5)CC4)(C1)C[C@@](c1ccccc1)(C3)C2 [Example B10]")
110
>>> observed_result("CCC12CC3CC(C(=O)N4CC[C@H](N)[C@@H](F)C4)(C1)CC(c1ccccc1)(C3)C2 (mixture of isomers) [Example A24]")
310

Please examine the following record next.
Task item: # EC50 lookup, item CC12CC3CC(C(=O)N[C@@H]4CCNC[C@H]4F)(C1)CC(c1ccccc1)(C3)C2 (mixture of isomers) [Example A5]
Reply: 410

---

- System: MARV (full-length glycoprotein, VSV pseudotype)
- METHOD: microbe, parasite or virus in culture
- Format: cell-based, Marburg marburgvirus
- SETTINGS: Vesicular stomatitis virus, Vero, 24 h, read-out: EC50 Pseudotype Assays MARV
MEASUREMENT TYPE: EC50 (µM)
API: value field is a number in µM; no unit string.

Task item: Reported EC50 for CC12CC3CC(C(=O)N[C@H]4CC[C@H](CN)CC4)(C1)CC(c1ccccc1)(C3)C2 (mixture of isomers) : what is it?
Reply: 7

Task item: Can you share its EC50? I mean this molecule: C[C@]12CC3CC(C(=O)N[C@H]4CC[C@@H](N)CC4)(C1)C[C@@](c1ccccc1)(C3)C2.Cl
Reply: 6.45

Task item: // returns reported EC50 for input CC12CC3CC(C(=O)N[C@@H]4CCNC[C@H]4F)(C1)CC(c1ccccc1)(C3)C2 (mixture of isomers)
Reply: 4.88

---

- METHOD: in vivo
- SETTINGS: male, CD-1, mouse
MEASUREMENT TYPE: bioavailability (%)
Just the number please, in %, no unit attached.

Task item: State the recorded bioavailability for this entry: CC12CC3CC(C(=O)N[C@H]4CC[C@@H](N)CC4)(C1)CC(c1ccccc1)(C3)C2.Cl (mixture of isomers) [Example A2]
Reply: 72

---

Catalogue of log10 CC50 readings, one per entry.
- METHOD: in vitro
- SETTINGS: African green monkey, Cytotox CC50
Values are log10 of CC50 in µM.

>>> observed_result("C[C@H]1C[C@@H](NC(=O)C23CC4C[C@](C)(C2)C[C@@](c2ccccc2)(C4)C3)CCN1")
1.15

Task item: Sample CCC12CC3CC(CN[C@H]4CC[C@H](CN)CC4)(C1)CC(c1ccccc1)(C3)C2 (stereo partly shown) — what was its log10 CC50?
Reply: 0.09

Task item: If you can, please state the reported log10 CC50 value of C[C@]12CC3CC(C(=O)N4CCC(N)C5(CC5)C4)(C1)C[C@@](c1ccccc1)(C3)C2 (stereo partly shown) .
Reply: 0.95

Task item: Suppose we examine the molecule C[C@]12CC3CC(C(=O)N[C@H]4CN5CCC4CC5)(C1)C[C@@](c1ccccc1)(C3)C2 ; what log10 CC50 value has been reported?
Reply: 0.90

Task item: What measured log10 CC50 goes with CCC12CC3CC(C(=O)N[C@@H]4CCNC[C@H]4F)(C1)CC(c1ccccc1)(C3)C2 (mixture of isomers) ?
Reply: 0.78

Task item: I would be grateful if you could share the reported log10 CC50 for C[C@]12CC3CC(CN4CCC(N)CC4)(C1)C[C@@](c1ccccc1)(C3)C2 .
Reply: 0.67

Task item: log10 CC50 for CC1(C)CN(C(=O)C23CC4C[C@@](C)(C2)C[C@](c2ccccc2)(C4)C3)CC[C@@H]1N ?
Reply: 1.05
